Tested on: Kaposi's sarcoma herpesvirus LANA C-terminal domain (residues 932-1162) DNA binding
assay_summary: inhibitors of KSHV C-LANA binding to DNA, primary screen, biochemical, fluorescence polarization, FAM-LBS DNA, MBP-C-LANA, single point (AID 504423)
study_conditions: at 9 µM
Out of some 340,000 compounds screened, about 260 (0.076%) were called active.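 How the source made its calls: active means highest replicate inhibition at or above 60% at 9 µM, even if other replicates fall short; inactive means all replicates below 60% inhibition.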 The list comes from a sample in which actives are over-represented; it also holds close analogues and randomly drawn compounds.
Please answer using one outcome listed in active, inactive

# compound, assigned_class
rows = [
    ("CCCCn1nc(C(=O)Nc2ccc(S(=O)(=O)Nc3ncccn3)cc2)c2ccccc2c1=O", "inactive"),
]

Data request: What was the test verdict on Cc1cc([N+](=O)[O-])nn1CC(=O)Nc1ccc(Cc2ccncc2)cc1 ?
Data returned: inactive

Data request: What was the test verdict on COC(=O)C1=C(O)/C(=C/c2ccc(OCC(=O)Nc3ccccc3)cc2)N=C1C ?
Data returned: inactive

Data request: What was the test verdict on CCC(C)C1(C2CCCC2)NC(=O)NC1=O (configuration not stated) ?
Data returned: inactive

Data request: What was the test verdict on OCCC1CN(Cc2ccc3nsnc3c2)CCN1C1CCCC1 (configuration not stated) ?
Data returned: inactive

Data request: What was the test verdict on O=C1COc2ccc(C(=O)COC(=O)c3cccnc3Cl)cc2N1 ?
Data returned: inactive

Data request: What was the test verdict on Cc1ccc(S(=O)(=O)/N=C(\N)c2ccc(F)cc2)cc1 ?
Data returned: inactive

Data request: What was the test verdict on CC(=O)Nc1ccc(S(=O)(=O)N(C)CC(=O)NCCC2=CCCCC2)cc1 ?
Data returned: inactive
